Origin of values: patent US20180193423A1

- MEASUREMENT_TARGET: T1, VPAC1 receptor (UniProt P32241 31-457, limits assumed)
- T1 sequence (looked up): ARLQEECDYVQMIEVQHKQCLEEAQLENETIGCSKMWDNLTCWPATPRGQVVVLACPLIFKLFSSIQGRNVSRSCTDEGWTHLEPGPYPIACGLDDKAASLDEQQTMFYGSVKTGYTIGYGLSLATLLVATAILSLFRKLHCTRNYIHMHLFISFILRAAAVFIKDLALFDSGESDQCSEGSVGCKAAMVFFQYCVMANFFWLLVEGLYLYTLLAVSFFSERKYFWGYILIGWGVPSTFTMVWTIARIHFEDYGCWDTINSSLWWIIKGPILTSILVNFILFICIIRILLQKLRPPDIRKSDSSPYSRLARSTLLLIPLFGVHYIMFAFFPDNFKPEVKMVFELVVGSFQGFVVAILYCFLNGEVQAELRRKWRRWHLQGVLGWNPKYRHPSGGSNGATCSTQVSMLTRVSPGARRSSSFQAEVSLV
- EXPERIMENTAL_DETAILS: cell-based or functional assay
Primed or numbered codes have the meaning given here. Where no end group is shown, it is not given here. [ ]: non-standard residue; d: D form. APC″ = 3-aminopyrrolidine-4-carboxylic acid (cyclic β-amino acid); ACPC″ = 2-aminocyclopentanecarboxylic acid (x in the sequences); APC = 3-aminopyrrolidine-4-carboxylic acid; ACPC = 2-aminocyclopentanecarboxylic acid; β3hY = N[C@H](CC(=O)O)Cc1ccc(O)cc1; β3hQ = NC(=O)CC[C@H](N)CC(=O)O; β3hN = NC(=O)C[C@H](N)CC(=O)O; β3hL = CC(C)C[C@H](N)CC(=O)O; β3hK = NCCCC[C@H](N)CC(=O)O; β3hV = CC(C)[C@H](N)CC(=O)O; Aib = CC(C)(N)C(=O)O; βAla = NCCC(=O)O
Item-by-item account of EC 50 vpac1 (Molar), cell-based cAMP assay
Response body: numeric value in nM, unit text excluded.

Recorded results for 4 binders are shown here.
Ac-H[ACPC]DA[β3hV]FTENYTKLRKQLAA[APC]KY[ACPC]NDL[β3hK]KG[βAla]T (not fully specified (C-terminus); printed as Ac-HxDAvFTENYTKLRKQLAAzKYxNDLkKGgT) [LBT-V210] ... 1420
Ac-HSDAVFTENYTKLRKQ[ACPC]AA[APC]KYL[ACPC]DL[β3hK]KGGT (not fully specified (C-terminus); printed as Ac-HSDAVFTENYTKLRKQxAAzKYLxDLkKGGT) [LBT-V203] ... 218
Ac-HSDAVFTENYTKLRKQLA[ACPC]KKY[ACPC]ND[β3hL]KKG[βAla]T (not fully specified (C-terminus); printed as Ac-HSDAVFTENYTKLRKQLAxKKYxNDlKKGgT) [LBT-V201] ... 9.09
Ac-H[ACPC]DA[β3hV]FTENYTKLRK[β3hQ]LAA[APC]KY[ACPC]NDL[β3hK]KG[βAla]T (not fully specified (C-terminus); printed as Ac-HxDAvFTENYTKLRKqLAAzKYxNDLkKGgT) [LBT-V212] ... 1530

State, in one line, measured EC 50 vpac1 (Molar), cell-based cAMP assay of Ac-H[Aib]DAVFTENYTKLRKQLAA[APC]KY[ACPC]NDL[β3hK]KG[βAla]T (not fully specified (C-terminus); printed as Ac-HBDAVFTENYTKLRKQLAAzKYxNDLkKGgT) [LBT-V204]
516

State, in one line, measured EC 50 vpac1 (Molar), cell-based cAMP assay of Ac-H[ACPC]DA[ACPC]FTENYTKLRKQLAA[APC]KY[ACPC]NDL[β3hK]KG[βAla]T (not fully specified (C-terminus); printed as Ac-HxDAxFTENYTKLRKQLAAzKYxNDLkKGgT) [LBT-V208]
133

State, in one line, measured EC 50 vpac1 (Molar), cell-based cAMP assay of Ac-H[ACPC″]DA[ACPC″]FTE[β3hN][β3hY]TKLRKQLAA[APC″]KY[ACPC″]NDL[β3hK]KG[βAla]T (not fully specified (C-terminus); printed as Ac-HxDAxFTEnyTKLRKQLAAzKYxNDLkKGgT) [LBT-V216]
932
